Experiment Notes: qHTS assay to identify small molecule antagonists of the retinoic acid receptor (RAR) signaling pathway (AID 1159552; further: nearly all actives have a fitted effect of over 50% in size)
Assay Setup: C3RL4 RARE luciferase reporter, retinol-stimulated, 6 h; series mostly up to 92.4 µM
Records with an inconclusive call do not appear. Active and inactive are the calls of the source. The call rests on the fitted dose curve; in most records, active means well fitted inhibition curve with a large enough effect in the repeat runs; inconclusive means weak or mixed curves, or effect the other way; inactive means no such curve, though single readings can be large or run the other way.
Classes used: true = active, false = inactive

{"columns": ["Compound", "Class"],
 "data": [
  ["Cc1ccc(/C=N/n2c(-c3ccccc3)csc2=S)cc1", "false"],
  ["CCCCN(CCCC)CCCOC(=O)c1ccc(N)cc1", "false"],
  ["CC(C)(C)CC(C)(C)c1ccc(OCCO)cc1", "false"],
  ["Cc1nc2ccccc2s1", "false"],
  ["CC(=O)Oc1ccc(C(=C2CCCCC2)c2ccc(OC(C)=O)cc2)cc1", "false"],
  ["NCC1CCCC(CN)C1 (stereo not given)", "false"],
  ["N#C/C(=C1\\SCC(c2ccccc2Cl)S1)n1ccnc1 (stereo not given)", "false"],
  ["C=CCNc1nc(NCC=C)nc(N2CCN(C(c3ccc(F)cc3)c3ccc(F)cc3)CC2)n1", "false"],
  ["CCCCCCCCCCCC[N+](C)(C)CC(=O)[O-]", "false"],
  ["Cc1nccn1-c1ccc(Sc2cccc(C3(C(N)=O)CCOCC3)c2)cc1", "true"],
  ["CC(C)(CCl)c1ccccc1", "false"],
  ["CO[C@@]12[C@H](COC(N)=O)C3=C(C(=O)C(C)=C(N)C3=O)N1C[C@@H]1N[C@@H]12", "true"],
  ["COCCOC", "true"],
  ["CCCC1C(CC)=CC(CC)=CN1c1ccccc1 (stereo not given)", "false"],
  ["CCN(CC)CCNC(=O)c1ccc(NC(C)=O)cc1", "false"]
]}
